Parameter GI50, tested on HCT-15, listed per item.

- molecule: "CCOc1ccc(NC(=S)N/C=C(/C(C)=O)C(=O)Nc2ccccc2C)cc1"
  scale.unit: "µM"
  qualifying.sign: ">"
  GI50: 100
- molecule: "O=C(O)CCc1nc(-c2ccccc2)c(-c2ccccc2)o1"
  scale.unit: "µM"
  qualifying.sign: ">"
  GI50: 100
- molecule: "COc1c(Sc2ccccc2)cc(Sc2ccccc2)c2cccnc12"
  scale.unit: "µM"
  qualifying.sign: "="
  GI50: 15.4
- molecule: "Cc1ccc(-c2cnc(NC3OC(COC(=O)c4ccccc4)C(OC(=O)c4ccccc4)C(OC(=O)c4ccccc4)C3OC(=O)c3ccccc3)s2)cc1 (configuration not stated)"
  scale.unit: "µM"
  qualifying.sign: ">"
  GI50: 100
- molecule: "Cc1[nH]c(=O)nc(N(CCO)/N=C/c2ccccc2Cl)c1C(=O)Nc1cc(Cl)cc(Cl)c1"
  scale.unit: "µM"
  qualifying.sign: ">"
  GI50: 100
- molecule: "NCCCN(CCCCN(CCCN)Cc1ccc2ccccc2c1)Cc1ccc2ccccc2c1"
  scale.unit: "µM"
  qualifying.sign: "="
  GI50: 3.58
- molecule: "c1ccc2c(c1)CC1c3[nH]c4ccccc4c3CCN21 (configuration not stated)"
  scale.unit: "µM"
  qualifying.sign: ">"
  GI50: 10
- molecule: "O=C1c2cccc(O)c2C(=O)c2c(O)cccc21"
  scale.unit: "µM"
  qualifying.sign: "="
  GI50: 74.8
- molecule: "COc1ccc(C2=NNC(=O)OC2c2ccccc2)cc1 (configuration not stated)"
  scale.unit: "µM"
  qualifying.sign: "="
  GI50: 37.7
- molecule: "O[C@H]1[C@H]2[C@H](O)CCCN2C[C@H]1O"
  scale.unit: "µM"
  qualifying.sign: ">"
  GI50: 100
- molecule: "COc1cc(/C=C2\\CN(C)CC3=C2N=C(S)NC3c2cc(OC)c(OC)c(OC)c2)cc(OC)c1OC (configuration not stated)"
  scale.unit: "µM"
  qualifying.sign: "="
  GI50: 80.2
- molecule: "O=C(O)c1cc2c(s1)C(=O)c1sccc1C2=O"
  scale.unit: "µM"
  qualifying.sign: "="
  GI50: 3.93
- molecule: "COc1ccc2cc(CNCCCN3CCN(CCCNCc4ccc5cc(OC)ccc5c4)CC3)ccc2c1"
  scale.unit: "µM"
  qualifying.sign: "="
  GI50: 1.57
- molecule: "COc1cc(/C=N/N=C(\\N)NO)cc(Cl)c1O"
  scale.unit: "µM"
  qualifying.sign: "="
  GI50: 66.8
- molecule: "COC(=O)CC1(O)C(C=C(C)C)C(C(=O)OC)C(=O)C(C(=O)OC)C1C(=O)OC (configuration not stated)"
  scale.unit: "µM"
  qualifying.sign: ">"
  GI50: 100
- molecule: "CN(C)C(=O)Oc1c(Br)cc(Br)cc1C(=O)OCc1ccccc1"
  scale.unit: "µM"
  qualifying.sign: "="
  GI50: 26.2
- molecule: "Cc1cc(O)ccc1C1(c2ccc(F)cc2)OC(=O)c2ccccc21 (configuration not stated)"
  scale.unit: "µM"
  qualifying.sign: "="
  GI50: 3.18
